All figures here come from patent US20090264415A2.

Test: Cytostatic effect on Huh-5-2 cells (MTS method)
Assay type: cell-based
Settings: human, 50% inhibition of cell growth
ASSAY_ENDPOINT: CC50 at 72 h (µM)
Give bare numbers, in µM.

Lookup: # input compound: COc1ccc(-c2ccc3nc(N)nc(N[C@H]4CC[C@H](N)CC4)c3n2)cc1OC [Example 36] ; wanted: its CC50 at 72 h
Found: 7.7

###

Tested on: production of human TNF-α by PBMC in response to LPS
Assay: TNF-α assay (LPS-stimulated PBMC, sandwich ELISA)
Format: cell-based
Details: Homo sapiens, PBMC; LPS 1 μg/ml, 72 hours; read-out: TNF α
Mark yes (1) only for IC50 values smaller than 3000 nM; exact matches and larger values are no (0).

Lookup: For this molecule, is IC50 lower than 3000 nM? COc1ccc(-c2ccc3nc(N)nc(NCCCNC(=O)COc4ccc(Cl)cc4)c3n2)cc1OC [Example 266]
Found: yes (1)

Lookup: Same for Nc1nc(N2CCOCC2)c2nc(-c3cccs3)ccc2n1 [Example 238]
Found: yes (1)

###

Assignment: determine reported PDE-4 (% inhibition) for the given compounds.
System: phosphodiesterase-4 (PDE-4) extract from U937 cells
Assay: Phosphodiesterase-4 inhibiting activity (isotopic two-step method)
Type: biochemical
Details: @ 10 μM

Solved cases below.
{"CHEM_SMILES": "Nc1nc(N2CCN(C(=O)COc3ccc(Cl)cc3)CC2)c2nc(-c3ccc(F)cc3)ccc2n1", "PDE-4 (% inhibition)": "34% @ 10 μM"}
{"CHEM_SMILES": "CCOc1ccc(-c2ccc3ncnc(N4CCN(C(=O)Nc5cccc(Cl)c5)CC4)c3n2)cc1Cl", "PDE-4 (% inhibition)": "49% @ 10 μM"}
{"CHEM_SMILES": "COc1ccc(-c2ccc3nc(N)nc(NCCNC(=O)Nc4cccc(C)c4)c3n2)cc1OC", "PDE-4 (% inhibition)": "86% @ 10 μM"}
{"CHEM_SMILES": "COc1cc(-c2ccc3ncnc(N4CCN(C(=O)Nc5cccc(Cl)c5)CC4)c3n2)ccc1OC(C)C", "PDE-4 (% inhibition)": "54% 10 μM"}
{"CHEM_SMILES": "COc1cc(-c2ccc3ncnc(N4CCN(C(=O)Nc5cccc(Cl)c5)CC4)c3n2)ccc1OCC1CC1", "PDE-4 (% inhibition)": "16% @ 10 μM"}

Batch request: PDE-4 (% inhibition) for each of the following compounds.
1. O=C(Nc1cccc(Cl)c1)N1CCN(c2ncnc3ccc(-c4ccc(Cl)c(Cl)c4)nc23)CC1
2. O=C(Nc1cccc(Cl)c1)N1CCN(c2ncnc3ccc(-c4ccc5c(c4)OCCO5)nc23)CC1
3. Cc1ccc(-c2ccc3ncnc(N4CCN(C(=O)Nc5cccc(Cl)c5)CC4)c3n2)cc1C
4. O=C(Nc1cccc(Cl)c1)N1CCN(c2ncnc3ccc(-c4ccc5c(c4)OCO5)nc23)CC1
5. COc1ccc(-c2ccc3ncnc(N4CCN(C(=O)Nc5cccc(Cl)c5)CC4)c3n2)cc1Cl

Found:
22% @ 10 μM
17% @ 10 μM
12% @ 10 μM
31% @ 10 μM
67% @ 10 μM

###

Assignment: determine reported pIC50 for the given compounds.
Test system: production of human TNF-α by PBMC in response to LPS
Assay: TNF-α assay (LPS-stimulated PBMC, sandwich ELISA)
Type: cell-based
Conditions: Homo sapiens, PBMC; LPS 1 μg/ml, 72 hours; read-out: TNF α
Description: Peripheral blood mononuclear cells (herein referred as PBMC), in response to stimulation by lipopolysaccharide (hereinafter LPS), a gram-negative bacterial endotoxin, produce various […], in particular human TNF-α. Inhibition of the activation of PBMC can therefore be measured by the level of suppression of the production of TNF-α by PBMC in response to stimulation by LPS. […]
Give bare numbers, as −log10 of the molar value.

{"COMPOUND": "COc1ccc(-c2ccc3nc(N)nc(N4CCN(CC(=O)N5CCCC5)CC4)c3n2)cc1OC [Example 273]", "TEST_RESULT": 7.10}
{"COMPOUND": "Cc1cccc(NC(=O)N2CCN(c3nc(N)nc4ccc(-c5ccc6c(c5)OCO6)nc34)CC2)c1 [Example 196]", "TEST_RESULT": 5.28}

Please turn your attention to the following entry.
Lookup: # input compound: COc1ccc(-c2ccc3nc(N)nc(OC(C)C)c3n2)cc1OC [Example 24] ; wanted: its pIC50
Found: 6.30
